src = paper PMC10313671

- TEST DETAILS: Transmission electron microscope (negative staining) of peptide assemblies
- RECORDED CONDITIONS: TEM, negative staining with uranyl acetate, 120 kV; line of the table gives 30 mM
Where a SMILES comes first, the peptide text is derived from it.
MEASURED PROPERTY: Morphology

CC(C)[C@H](NC(=O)[C@@H](N)Cc1c[nH]c2ccccc12)C(=O)N[C@@H](Cc1ccccc1)C(=O)N[C@@H](Cc1ccc(O)cc1)C(=O)O [WVFY] (H-WVFY-OH) ... sheet
N[C@@H](CO)C(=O)N[C@@H](Cc1ccc(O)cc1)C(=O)N[C@@H](Cc1ccccc1)C(=O)N[C@@H](Cc1ccccc1)C(=O)O [SYFF] (H-SYFF-OH) ... fibre
CC(C)C[C@H](N)C(=O)N[C@@H](Cc1c[nH]c2ccccc12)C(=O)N[C@@H](Cc1c[nH]c2ccccc12)C(=O)N[C@@H](Cc1ccccc1)C(=O)O [LWWF] (H-LWWF-OH) ... aggregates
CC(C)C[C@H](NC(=O)[C@@H](NC(=O)[C@@H](N)CC(C)C)[C@@H](C)O)C(=O)N[C@@H](Cc1ccccc1)C(=O)O [LTLF] (H-LTLF-OH) ... sheet
CC(C)C[C@H](NC(=O)[C@H](CC(C)C)NC(=O)[C@@H](N)CC(C)C)C(=O)N[C@@H](CO)C(=O)O [LLLS] (H-LLLS-OH) ... sheet
CC[C@H](C)[C@H](NC(=O)[C@@H]1CCCN1)C(=O)N[C@@H](Cc1ccccc1)C(=O)N[C@@H](Cc1ccc(O)cc1)C(=O)O [PIFY] (H-PIFY-OH) ... sphere

Would you kindly share the measured Morphology for CC(C)C[C@H](N)C(=O)N[C@H](C(=O)N[C@@H](Cc1ccccc1)C(=O)N[C@@H](Cc1ccccc1)C(=O)O)C(C)C ?
sphere

Would you kindly share the measured Morphology for N[C@@H](Cc1c[nH]c2ccccc12)C(=O)N[C@@H](Cc1ccc(O)cc1)C(=O)N[C@@H](Cc1ccccc1)C(=O)N[C@@H](Cc1ccccc1)C(=O)O [WYFF] (H-WYFF-OH) ?
fibre

Would you kindly share the measured Morphology for CC[C@H](C)[C@H](N)C(=O)N[C@@H](CCSC)C(=O)N[C@H](C(=O)N[C@H](C(=O)O)C(C)C)C(C)C [IMVV] (H-IMVV-OH) ?
aggregates
